experiment: Log D (pH7.4 shake flask); format: physicochemical; settings: pH 7.4; 1-octanol/phosphate buffer shake flask; read-out: mLogD (pH 7.4)
measured_quantity: logD

item_smiles	logD
CC(C)(C)c1cc(Cl)c(CC(=O)Nc2ccnc(C(=O)NC3(C(F)(F)F)CC3)c2)cc1O	3.7
CC(C)(C)NC(=O)c1cc(NC(=O)Cc2cc(O)c(C3(C#N)CC3)cc2F)ccn1	3.7
CC(C)(CO)c1cc(Cl)c(CC(=O)Nc2ccnc(C(=O)NC3(C(F)F)CC3)c2)cc1O	3.4
CC(C)(CO)c1cc(Cl)c(CC(=O)Nc2ccnc(C(=O)NC3(C(F)(F)F)CC3)c2)cc1O	3.9
CC(C)(C)c1cc(Cl)c(CC(=O)Nc2ccnc(C(=O)NC3(C#N)CC3)c2)cc1O	3.7
O=C(Cc1cc(O)c(C2(CO)CCC2)cc1F)Nc1ccnc(C(=O)NC2(C(F)(F)F)CC2)c1	3.3
